The origin of these recorded values is patent US7115648B2.

# systemTested: Human recombinant liver glycogen phosphorylase a (hrl GPa) (Homo sapiens, UniProt P06737)
# Sequence (P06737 1-847): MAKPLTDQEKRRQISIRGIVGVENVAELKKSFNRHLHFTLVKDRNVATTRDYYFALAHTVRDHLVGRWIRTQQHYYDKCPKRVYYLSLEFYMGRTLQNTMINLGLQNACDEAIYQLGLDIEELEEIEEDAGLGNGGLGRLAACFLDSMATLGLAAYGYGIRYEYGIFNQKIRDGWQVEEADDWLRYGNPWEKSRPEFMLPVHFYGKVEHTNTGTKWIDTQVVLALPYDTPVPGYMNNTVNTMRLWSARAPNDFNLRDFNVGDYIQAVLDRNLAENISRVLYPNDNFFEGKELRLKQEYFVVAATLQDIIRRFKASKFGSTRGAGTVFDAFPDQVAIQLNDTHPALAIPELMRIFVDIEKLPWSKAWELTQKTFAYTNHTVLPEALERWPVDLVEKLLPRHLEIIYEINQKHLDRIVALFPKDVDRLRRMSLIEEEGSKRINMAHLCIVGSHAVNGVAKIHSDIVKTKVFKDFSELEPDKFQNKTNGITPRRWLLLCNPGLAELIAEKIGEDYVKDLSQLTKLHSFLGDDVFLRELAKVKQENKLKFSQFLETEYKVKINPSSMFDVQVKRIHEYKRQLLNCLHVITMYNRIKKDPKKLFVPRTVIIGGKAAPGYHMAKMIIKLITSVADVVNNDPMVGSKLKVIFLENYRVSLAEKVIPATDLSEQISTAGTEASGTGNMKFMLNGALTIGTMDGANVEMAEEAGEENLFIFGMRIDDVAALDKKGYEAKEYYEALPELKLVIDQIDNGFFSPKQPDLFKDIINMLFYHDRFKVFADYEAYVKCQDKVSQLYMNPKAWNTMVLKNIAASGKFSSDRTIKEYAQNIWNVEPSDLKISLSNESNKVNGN
# assay: Glycogen degradation multienzyme coupled assay (NADH fluorescence)
# testParameters: glycogen degradation direction
# Procedure: The activity of the compounds is alternatively determined by measuring the inhibitory effect of the compounds on glycogen degradation, the production of glucose-1-phosphate from glycogen is monitored by the multienzyme coupled assay, as described in EP 0 846 464 A2, general method of Pesce et al (Pesce, M A, Bodourian, S H, Harris, R C, and Nicholson, J F (1977) Clinical Chemistry 23, 1171–1717). […] Relative Fluoresence Units (RFUs) are measured at 340 nm excitation, 465 nm emission. […]
assayReadout: IC50 (nM)

[
  {
    "sampleSmiles": "O=C(NCC(=O)N(CCO)c1ccccc1)c1cc2cc(Cl)ccc2[nH]1",
    "assayReadout": "IC50",
    "resultValue": 550
  }
]
